Cited source for all entries: PubChem BioAssay (NCATS)

run.description: S16 Schwann cell viability assay (CellTiter-Glo assay) (AID 624031); also: nearly all actives have a fitted effect of over 70% in size
condition.label: S16 rat Schwann cells viability, 24 h; series mostly up to 57.5 µM
Inconclusive results are not listed. Active and inactive are the calls of the source. Calls follow the shape of the dose curve; as a rule, active = well fitted cell-killing curve with a large enough effect; inconclusive = small, poorly fitted or top-dose-only effect, or effect the other way; inactive = flat fitted curve, though single readings scatter.
Possible outcomes: active, inactive

In [3]: df
Out[3]:
                                    molecule  answer_label
 0                                    CCON=O      inactive
 1  O=C1CC[C@@]2(O)C3Cc4ccc(O)c5c4C2(CCN3CC2CC2)[C@H]1O5 (some centres undefined)      inactive
 2                      O=[N+]([O-])c1ccccc1      inactive
 3                             ClC(Cl)(Cl)Cl      inactive
 4     CC(N)Cc1ccc(O)cc1 (centres undefined)      inactive
 5               CCC1(CC)C(=O)NC(=O)N(C)C1=O      inactive
 6  CCC(N)Cc1c[nH]c2ccccc12 (centres undefined)      inactive
 7                                  CC(=O)OO      inactive
 8               c1csc(C2(N3CCCCC3)CCCCC2)c1      inactive
 9                                 C=CCN=C=S      inactive
10                               ClC=C(Cl)Cl      inactive
11  CN1C2CCC1CC(OC(c1ccccc1)c1ccc(Cl)cc1)C2 (centres undefined)        active
12   CC(=O)OC1CN2CCC1CC2 (centres undefined)      inactive
13  CC(C)(O)C1C2OC(=O)C1C1(O)CC3OC34C(=O)OC2C14C (centres undefined)      inactive
14  C=CCC1(C(C)CCC)C(=O)N=C(S)NC1=O (centres undefined)      inactive
15                     N#CC1(N2CCCCC2)CCCCC1      inactive
16     O=C(CCl)c1ccc(Oc2ccc(C(=O)CCl)cc2)cc1      inactive
17                              Clc1ccccc1Cl      inactive
18     CCOP(=O)(OCC)O/C(=C/Cl)c1ccc(Cl)cc1Cl      inactive
19  COc1ccc(OC)c(C(O)C(C)N)c1 (centres undefined)      inactive
20      CCN(CC)C(=O)/C(Cl)=C(\C)OP(=O)(OC)OC      inactive
21  COc1ccc2c3c1O[C@H]1C(=O)CC[C@H]4[C@@H](C2)N(C)CC[C@]314      inactive
22                 c1ccc2cc(CC3=NCCN3)ccc2c1      inactive
23             O=[N+]([O-])c1cc(I)c(O)c(I)c1      inactive
24  CCCC(C)(COC(N)=O)COC(=O)NC1CC1 (centres undefined)      inactive
25               O=P(O)(O)C(Cl)(Cl)P(=O)(O)O      inactive
26  COC1=CC=C2[C@H]3Cc4ccc(OC)c5c4[C@@]2(CCN3C)[C@H]1O5      inactive
27  ClC1C(Cl)C(Cl)C(Cl)C(Cl)C1Cl (centres undefined)      inactive
28               c1cc2c(c(NC3=NCCN3)c1)CCCC2      inactive
29          C#CC(C)(O)CC (centres undefined)      inactive
30  CCCC(C)C1(CC)C(=O)NC(=O)NC1=O (centres undefined)      inactive
31  [N-]=[N+]=CC(=O)OCC(N)C(=O)O (centres undefined)      inactive
32                  CCOC(=O)c1ccccc1C(=O)OCC      inactive
33               O=c1[nH]c(=O)n(Cl)c(=O)n1Cl      inactive
34             C=CCN(C1=NCCN1)c1c(Cl)cccc1Cl      inactive
35                        [Cl-].[Cl-].[Hg+2]        active
36  CCCCNCC(O)c1ccc(O)cc1 (centres undefined)      inactive
37                     CNC(=O)OCC[N+](C)(C)C      inactive
38                                    CCCCCl      inactive
39  COC([CH2][Hg])CNC(=O)c1ccccc1OCC(=O)O (centres undefined)      inactive
40        O[C@H]1[C@H]2[C@H](O)CCCN2C[C@H]1O      inactive
41  CCC1(c2ccccc2)C(=O)NC(=O)N(C(=O)c2ccccc2)C1=O (centres undefined)      inactive
42  CCC(=O)O[C@@](Cc1ccccc1)(c1ccccc1)[C@@H](C)CN(C)C      inactive
43                                      N#CN      inactive
44                            S=C(S)N1CCNCC1      inactive
45  CC1CCC(C(C)C)C(OC(=O)c2ccccc2N)C1 (centres undefined)      inactive
46      CCCCCCCCOC(=O)c1ccccc1C(=O)OCCCCCCCC      inactive
47            CCC1(c2ccccc2)C(=O)NC(=O)NC1=O      inactive
48                 c1ccc2sc(SNC3CCCCC3)nc2c1      inactive
49  OC(c1ccccc1)(c1ccccc1)C1CN2CCC1CC2 (centres undefined)      inactive
50  CCCC(=O)OC(C(Cl)(Cl)Cl)P(=O)(OC)OC (centres undefined)      inactive
51             CN1CCCC(=C(c2cccs2)c2cccs2)C1      inactive
52   O=C1CCCCC1CN1CCCCC1 (centres undefined)      inactive
53                                     S=C=S      inactive
54  CN1c2ccccc2C(NCCCCCCC(=O)O)c2ccc(Cl)cc2S1(=O)=O (centres undefined)      inactive
55                          O=C/C=C/c1ccccc1      inactive
56                            Cn1sc(Cl)cc1=O      inactive
57                       Oc1cccc[c]1[Hg][Cl]        active
58  C[N+]1(C)C2CCC1CC(OC(=O)c1c[nH]c3ccccc13)C2 (centres undefined)      inactive

----------
tested.on: ATP-dependent 6-phosphofructokinase (Trypanosoma brucei brucei) (UniProt O15648)
Sequence (O15648 whole entry, looked up): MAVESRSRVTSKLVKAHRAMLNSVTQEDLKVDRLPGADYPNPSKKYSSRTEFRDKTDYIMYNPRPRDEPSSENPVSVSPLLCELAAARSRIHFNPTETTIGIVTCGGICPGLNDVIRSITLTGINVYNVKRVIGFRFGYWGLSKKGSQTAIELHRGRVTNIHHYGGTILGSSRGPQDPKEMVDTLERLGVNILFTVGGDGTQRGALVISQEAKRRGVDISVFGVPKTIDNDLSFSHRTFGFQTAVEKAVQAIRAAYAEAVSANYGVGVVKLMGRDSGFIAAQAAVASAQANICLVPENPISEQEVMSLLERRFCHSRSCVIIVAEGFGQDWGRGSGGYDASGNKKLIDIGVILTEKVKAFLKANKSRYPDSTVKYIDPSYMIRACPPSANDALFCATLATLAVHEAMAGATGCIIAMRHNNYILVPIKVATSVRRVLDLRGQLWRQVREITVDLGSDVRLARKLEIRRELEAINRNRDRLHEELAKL
run.description: qHTS Assay to Find Inhibitors of T. brucei phosphofructokinase: hit validation (AID 492961)
condition.label: T. brucei PFK, ADP-Glo luminescence; series mostly up to 51.4 µM
Results filed as inconclusive are left out. Activity calls are given as the source filed them. The call rests on the fitted dose curve; in most records, active means well fitted inhibition curve with a large enough effect; inconclusive means small, poorly fitted or top-dose-only effect, or effect the other way; inactive means flat fitted curve, though single readings scatter.
Possible outcomes: Yes for active, No for inactive

                                   compound  answer_label
0                                  O=C1CCO1            No
1  C/C(=C\c1csc(C)n1)[C@@H]1C[C@@H]2O[C@]2(C)CCC[C@H](C)[C@H](O)[C@@H](C)C(=O)C(C)(C)[C@@H](O)CC(=O)O1            No
2      CCN(CC)C(=O)/C(Cl)=C(\C)OP(=O)(OC)OC            No
3               O=c1c2ccccc2[se]n1-c1ccccc1           Yes
4                 CC(C)Nc1ccc(Nc2ccccc2)cc1            No
5  C=CCC1(C(C)CCC)C(=O)N=C(S)NC1=O (stereo not drawn)            No
6                                    CCCCCl            No
7            CCC1(c2ccccc2)C(=O)NC(=O)NC1=O            No

----------
System: AA1029
run.description: qHTS profiling for inhibitors of Plasmodium falciparum proliferation (AID 504749); also: nearly all actives have a fitted effect of over 60% in size
condition.label: P. falciparum in erythrocytes, SYBR Green DNA, 72 h; series mostly up to 28.7 µM
Results filed as inconclusive are left out. The source made the active and inactive calls. Calls come from the whole dose curve; as a rule, active = well fitted inhibition curve with a large enough effect; inconclusive = small, poorly fitted or top-dose-only effect; inactive = flat fitted curve, though single readings scatter.
Possible outcomes: 1 (yes) for active, 0 (no) for inactive

                                    molecule  answer_label
 0    O=C1CN=C(c2ccccc2)c2cc(Cl)ccc2N1CC1CC1        0 (no)
 1                     N#CC1(N2CCCCC2)CCCCC1        0 (no)
 2               c1ccc(C2(N3CCCC3)CCCCC2)cc1       1 (yes)
 3  COC([CH2][Hg])CNC(=O)c1ccccc1OCC(=O)O (configuration not stated)        0 (no)
 4  CC(Cc1ccccc1)NC=O (configuration not stated)        0 (no)
 5                               ClC=C(Cl)Cl        0 (no)
 6                       Oc1cc(Cl)c(Cl)cc1Cl        0 (no)
 7  CN1c2ccccc2C(NCCCCCCC(=O)O)c2ccc(Cl)cc2S1(=O)=O (configuration not stated)        0 (no)
 8  O=C(CS(=O)C(c1ccccc1)c1ccccc1)NO (configuration not stated)        0 (no)
 9  CCCC(=O)OC(C(Cl)(Cl)Cl)P(=O)(OC)OC (configuration not stated)        0 (no)
10  CCC(=O)O[C@@](Cc1ccccc1)(c1ccccc1)[C@@H](C)CN(C)C        0 (no)
11              N#CC(C#N)=Cc1cc(O)c(O)c(O)c1       1 (yes)
12  CC(=O)O[C@H]1CC[C@H]2[C@@H]3CCC4=CC(=O)CCC4=C3C=C[C@]12C        0 (no)
13  C[C@]12CCC(=O)C[C@@H]1CC[C@@H]1[C@@H]2CC[C@]2(C)[C@@H](O)CC[C@@H]12        0 (no)
14  [O]=[Cr](=[O])([OH])[O][Cr](=[O])(=[O])[OH]        0 (no)
15      CCCCCCCCOC(=O)c1ccccc1C(=O)OCCCCCCCC        0 (no)
16  CC(C)(O)C1C2OC(=O)C1C1(O)CC3OC34C(=O)OC2C14C (configuration not stated)        0 (no)
17  COc1ccc2c3c1O[C@H]1C(=O)CC[C@H]4[C@@H](C2)N(C)CC[C@]314        0 (no)
18  CCOc1ccc2c3c1O[C@H]1[C@@H](O)C=C[C@H]4[C@@H](C2)N(C)CC[C@@]341        0 (no)
19                 CC(C)Nc1ccc(Nc2ccccc2)cc1       1 (yes)
20                      O=[N+]([O-])c1ccccc1        0 (no)
21                                 C=CCN=C=S        0 (no)
22  CCC(N)Cc1c[nH]c2ccccc12 (configuration not stated)        0 (no)
23                              Clc1ccccc1Cl        0 (no)
24                             ClC(Cl)(Cl)Cl        0 (no)
25                       Oc1cccc[c]1[Hg][Cl]       1 (yes)
26               O=c1[nH]c(=O)n(Cl)c(=O)n1Cl        0 (no)
